# PROCEDURE_SUMMARY: Therapeutic index, ratio of HC50 for human erythrocytes to MIC for Staphylococcus aureus ATCC 29213
# Assay type: toxicity
# TEST_PARAMETERS: read-out: TI
Reported selectivity ratio is given for each of the following compounds.
Reply with just the number.

Solved cases (5 shown):
{"columns": ["LINE_NOTATION", "selectivity ratio"],
 "data": [
  ["CCCCCCCCCCCCCCCCCC(=O)NN(CC(=O)NCCCCCCCCCCCC)C(=O)CN.Cl", 0.5],
  ["CCCCCCCCNC(=O)CN(NC(C)=O)C(=O)CN.Cl", 1.7],
  ["CCCCCCCCCCCC(=O)NN(CC(=O)NCCCCCCCC)C(=O)CN.Cl", 7.6],
  ["CCCCCCCCCCCCNC(=O)CN(NC(=O)c1ccccc1)C(=O)CN.Cl", 49],
  ["CCCCCCCCNC(=O)CN(NC(=O)c1ccccc1)C(=O)CN.Cl", 2.9]
]}

Consider the compound shown here: "CCCCCCCCCCCC(=O)NN(CC(=O)NCCC)C(=O)CN.Cl" What is its recorded selectivity ratio?
2.6

And for "CCCCCCCCNC(=O)CN(NC(=O)C(C)(C)C)C(=O)CN.Cl" ?
1.5

And for "CCCCCCCC(=O)NN(CC(=O)NCCC)C(=O)CN.Cl" ?
0.4

And for "CCCCCCCCCCCCCCCCCCNC(=O)CN(NC(=O)CCCCCCCCCCC)C(=O)CN.Cl" ?
1.4

And for "CCCCCCCCCCCCNC(=O)CN(NC(=O)OCc1ccccc1)C(=O)CN.Cl" ?
11

And for "CCCNC(=O)CN(NC(=O)OCc1ccccc1)C(=O)CN.Cl" ?
1.5

Every entry's value here was drawn from ChEMBL document CHEMBL4680184.
